Assay: Cell Viability - LYMP2-004 (AID 966);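 note: cells exposed to compound for 24 h; nearly all actives have a fitted effect of over 65% in size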
Details: LYMP2-004 lymphoblastoid cell viability, qHTS; series mostly up to 92.2 µM
Description: NIH Chemical Genomics Center [NCGC] NIH Molecular Libraries Screening Centers Network [MLSCN] National Institutes of Environmental Health Sciences [NIEHS] National Toxicology Program [NTP] We have developed a 1536-well cell-based assay for quantitative high throughput screening (qHTS) against a number of cell lines to determine in vitro cytotoxicity of small molecules. […] 8. Detection; Luminescence; Viewlux plate reader […]
Records with an inconclusive call do not appear. Activity calls are given as the source filed them. Calls come from the whole dose curve; as a rule, active = well fitted cell-killing curve with a large enough effect; inconclusive = small, poorly fitted or top-dose-only effect, or effect the other way; inactive = no such curve, though single readings can be large or run the other way.
Outcome codes: true (1) (active), false (0) (inactive)

COMPOUND	CLASS
Nc1ccc2c(c1)C(=O)c1ccccc1C2=O	false (0)
Cc1cc(-c2ccc(N=Nc3cc(S(=O)(=O)O)c4ccccc4c3N)c(C)c2)ccc1N=Nc1cc(S(=O)(=O)O)c2ccccc2c1N	false (0)
c1ccc2ncccc2c1	false (0)
C1CCCNCC1	false (0)
CCCCCCCC/C=C\CCCCCCCC(=O)N(CCO)CCO	false (0)
O=C(OCc1ccccc1)c1ccccc1O	false (0)
COc1ccc(C(=O)Nc2ccccc2)cc1[N+](=O)[O-]	false (0)
COc1cc(-c2ccc(N=C=O)c(OC)c2)ccc1N=C=O	false (0)
Brc1cc(Oc2cc(Br)c(Br)c(Br)c2Br)c(Br)c(Br)c1Br	false (0)
C=CC(=O)OCCCCCCOC(=O)C=C	true (1)
Oc1cc(Cl)cc(Cl)c1Cl	false (0)
CCCCCCCCC1CO1 (stereo not drawn)	false (0)
Nc1ccc(N=Nc2ccccc2)c(N)c1	false (0)
